- measurement-description: Rising single dose (RSD) study: pharmacokinetics of orally administered COMPOUND 1 in healthy subjects
- Format: in vivo, human
- experimental-parameters: male, human, plasma, po, 10 mg, single oral dose 10 mg, n=6; mean (CV %); read-out: Cmax
- Procedure: Phase I clinical studies were designed to evaluate the pharmacokinetics of COMPOUND 1 in healthy subjects after rising single and multiple doses. […] In the single-dose study, 50 healthy males were enrolled into 6 sequential cohorts and randomized to receive in ascending dose manner placebo (n=2-3/group) or oral COMPOUND 1 (0.25, 1, 5, 10, 20 and 40 mg; n=5-6/group). […] Measured and derived pharmacokinetic parameters were used to assess the pharmacokinetic profile. […]
metric-name: Cmax (ng/mL)

molecule="CCOC(=O)N[C@@H]1CC[C@@H]2[C@@H](C1)C[C@H]1C(=O)O[C@H](C)[C@H]1[C@H]2/C=C/c1ccc(-c2cccc(F)c2)cn1 [COMPOUND 1]" metric_name=Cmax unit_name=ng/mL val=99.2

----------
- measurement-description: Rising single dose (RSD) study: pharmacokinetics of orally administered COMPOUND 1 in healthy subjects
- Assay type: in vivo, human
- experimental-parameters: male, human, plasma, oral; subjects of the 20 mg and 40 mg single dose groups, samples up to 64 days after dosing; read-out: apparent terminal-phase half-life (t1/2)
- Experimental: Phase I clinical studies were designed to evaluate the pharmacokinetics of COMPOUND 1 in healthy subjects after rising single and multiple doses. […] In the single-dose study, 50 healthy males were enrolled into 6 sequential cohorts and randomized to receive in ascending dose manner placebo (n=2-3/group) or oral COMPOUND 1 (0.25, 1, 5, 10, 20 and 40 mg; n=5-6/group). […] Measured and derived pharmacokinetic parameters were used to assess the pharmacokinetic profile. […]
metric-name: half-life

smiles_record=CCOC(=O)N[C@@H]1CC[C@@H]2[C@@H](C1)C[C@H]1C(=O)O[C@H](C)[C@H]1[C@H]2/C=C/c1ccc(-c2cccc(F)c2)cn1 val="126 to 269 h"
